# tgt: AR (Homo sapiens, UniProt P10275)
# Construct: endogenous in cells; host or cells: VCaP cells
# assay_name: VCAP AR Degradation Assay
# Type: cell-based
# test_conditions: class symbols *, **
Where a name gives a salt, the structure may show the parent alone.
value_kind: Y (AR degradation efficiency, % of DMSO control)

Example results:
compound	measured_value
C[C@@H]1CN(CCOc2ccc(N3C(=S)N(c4cnc(C#N)c(C(F)(F)F)c4)C(=O)C3(C)C)cc2C(C)(F)F)C[C@H](C)N1CC(=O)Nc1cc(C#N)cc(NC2CCC(=O)NC2=O)c1 (some centres unmarked) [Example 258]	* (0<Y<=25%)
C[C@@H]1CN(CCOc2ccc(N3C(=S)N(c4cnc(C#N)c(C(F)(F)F)c4)C(=O)C34CCC4)cc2C2CC2)C[C@H](C)N1CC(=O)Nc1cc(NC2CCC(=O)NC2=O)ccc1F (some centres unmarked) [Example 198]	* (0<Y<=25%)
CC1(C)C(=O)N(c2ccc(C#N)c(C(F)(F)F)c2)C(=S)N1c1ccc(OCCN2CCN(CC(=O)Nc3cccc(NC4CCC(=O)NC4=O)c3)CC2)c(C2CCCC2)c1 (centres unmarked) [Example 39, hydrochloride]	** (25%<Y<=35%)
C[C@@H]1CN(CC(=O)Nc2cc(C#N)cc(NC3CCC(=O)NC3=O)c2)[C@H](C)CN1CCOc1ccc(N2C(=S)N(c3cnc(C#N)c(C(F)(F)F)c3)C(=O)C2(C)C)cc1C(C)(F)F (some centres unmarked) [Example 243]	* (0<Y<=25%)
CCc1cc(N2C(=S)N(c3cnc(C#N)c(C(F)(F)F)c3)C(=O)C2(C)C)ccc1OCCN1CCN([C@H](C)C(=O)Nc2cccc(NC3CCC(=O)NC3=O)c2)CC1 (some centres unmarked) [Example 119]	* (0<Y<=25%)
CCc1cc(N2C(=S)N(c3ccc(C#N)c(C(F)(F)F)c3)C(=O)C2(C)C)ccc1OCCN1C[C@@H](C)N(CC(=O)Nc2cccc(NC3CCC(=O)NC3=O)c2)[C@H](C)C1 (some centres unmarked) [Example 129]	* (0<Y<=25%)
CCc1cc(N2C(=S)N(c3cnc(C#N)c(C(F)(F)F)c3)C(=O)C23CCC3)ccc1OCCN1C[C@@H](C)N(CC(=O)Nc2cc(NC3CCC(=O)NC3=O)ccc2F)[C@@H](C)C1 (some centres unmarked) [Example 190]	* (0<Y<=25%)
CCc1cc(N2C(=S)N(c3ccc(C#N)c(C(F)(F)F)c3)C(=O)C2(C)C)ccc1OCCN1CCN(CC(=O)Nc2cccc(NC3CCC(=O)NC3=O)c2)C2(CC2)C1 (centres unmarked) [Example 98]	** (25%<Y<=35%)
C[C@@H]1CN(CC(=O)Nc2cccc(NC3CCC(=O)NC3=O)c2)[C@H](C)CN1CCOc1ccc(N2C(=S)N(c3ccc(C#N)c(Cl)c3)C(=O)C2(C)C)cc1C1CC1 (some centres unmarked) [Example 205]	* (0<Y<=25%)
CC1(C)C(=O)N(c2ccc(C#N)c(C(F)(F)F)c2)C(=S)N1c1ccc(OCCN2CCN(CC(=O)Nc3cc(Cl)cc(NC4CCC(=O)NC4=O)c3)CC2)c(CCF)c1 (centres unmarked) [Example 136]	* (0<Y<=25%)

Y (AR degradation efficiency, % of DMSO control) recorded for this compound, CCc1cc(N2C(=S)N(c3ccc(C#N)c(Cl)c3)C(=O)C2(C)C)ccc1OCCN1C[C@@H](C)N(CC(=O)Nc2cccc(NC3CCC(=O)NC3=O)c2)[C@@H](C)C1 (some centres unmarked) [Example 291] , is * (0<Y<=25%)

---

# tgt: AR (Homo sapiens)
# Construct: endogenous in cells; host or cells: VCaP cells
# assay_name: VCAP AR Degradation Assay
# Assay type: cell-based
# test_conditions: class symbols A-C, read-out: DC50
Structures can show the parent of a compound that is named as a salt.
value_kind: DC50

Example results:
molecule	DC50
CCc1cc(N2C(=S)N(c3ccc(C#N)c(C(F)(F)F)c3)C(=O)C2(C)C)ccc1OCCN1CCN(CC(=O)Nc2cc(Cl)cc(NC3CCC(=O)NC3=O)c2)C(C)(C)C1 (stereo not drawn) [Example 79]	< 100 nM
CCc1cc(N2C(=S)N(c3cnc(C#N)c(C(F)(F)F)c3)C(=O)C2(C)C)ccc1OCCN1CCN(CC(=O)Nc2cc(F)cc(NC3CCC(=O)NC3=O)c2)C2(CC2)C1 (stereo not drawn) [Example 110]	< 100 nM

Lab note: next molecule to report on.
DC50 recorded for this molecule, CCCc1cc(N2C(=S)N(c3cnc(C#N)c(C(F)(F)F)c3)C(=O)C2(C)C)ccc1OCCN1CCN(CC(=O)Nc2cccc(NC3CCC(=O)NC3=O)c2)CC1 (stereo not drawn) [Example 38, hydrochloride] , is < 100 nM

---

Assign DC50 to each entry below.
# tgt: AR (Homo sapiens)
# Construct: endogenous in cells; host or cells: VCaP cells
# assay_name: VCAP AR Degradation Assay
# Type: cell-based
# test_conditions: class symbols A-C, read-out: DC50

compound	DC50
CCc1cc(N2C(=S)N(c3cnc(C#N)c(C(F)(F)F)c3)C(=O)C2(C)C)ccc1OCCN1C[C@@H](C)N(CC(=O)Nc2cc(Cl)cc(NC3CCC(=O)NC3=O)c2)C[C@H]1C (stereo partly drawn)	< 100 nM
CCc1cc(N2C(=S)N(c3cnc(C#N)c(C(F)(F)F)c3)C(=O)C23CCC3)ccc1OCCN1CCN(C2(C(=O)Nc3cccc(NC4CCC(=O)NC4=O)c3)CC2)CC1 (stereo not drawn)	< 100 nM

Lab note: next compound to report on.
Observed DC50, AR (Homo sapiens), CCc1cc(N2C(=S)N(c3ccc(C#N)c(C(F)(F)F)c3)C(=O)C2(C)C)ccc1OCCN1C[C@H](C)N(CC(=O)Nc2cccc(NC3CCC(=O)NC3=O)c2)C[C@H]1C (stereo partly drawn) : 100 to 500 nM

---

# tgt: AR (Homo sapiens, UniProt P10275)
# Construct: endogenous in cells; host or cells: VCaP cells
# assay_name: VCAP AR Degradation Assay
# Type: cell-based
# test_conditions: class symbols *, **
value_kind: Y (AR degradation efficiency, % of DMSO control)

compound	tgt	measured_value
CCc1cc(N2C(=S)N(c3cnc(C#N)c(C(F)(F)F)c3)C(=O)C23CCC3)ccc1OCCN1CCN(CC(=O)Nc2cccc(NC3CCC(=O)NC3=O)c2)CC1 (centres unmarked)	AR (Homo sapiens, UniProt P10275)	* (0<Y<=25%)
C[C@@H]1CN(CCOc2ccc(N3C(=S)N(c4ccc(C#N)c(C(F)(F)F)c4)C(=O)C3(C)C)cc2Cl)C[C@H](C)N1CC(=O)Nc1cccc(NC2CCC(=O)NC2=O)c1 (some centres unmarked)	AR (Homo sapiens, UniProt P10275)	* (0<Y<=25%)
CCc1cc(N2C(=S)N(c3cnc(C#N)c(C(F)(F)F)c3)C(=O)C2(C)C)ccc1OCCN1CCN(CC(=O)Nc2cc(C#N)cc(NC3CCC(=O)NC3=O)c2)[C@H](C)C1 (some centres unmarked)	AR (Homo sapiens, UniProt P10275)	* (0<Y<=25%)

---

# tgt: AR (Homo sapiens, UniProt P10275)
# Construct: endogenous in cells; host or cells: VCaP cells
# Sequence (P10275 1-920): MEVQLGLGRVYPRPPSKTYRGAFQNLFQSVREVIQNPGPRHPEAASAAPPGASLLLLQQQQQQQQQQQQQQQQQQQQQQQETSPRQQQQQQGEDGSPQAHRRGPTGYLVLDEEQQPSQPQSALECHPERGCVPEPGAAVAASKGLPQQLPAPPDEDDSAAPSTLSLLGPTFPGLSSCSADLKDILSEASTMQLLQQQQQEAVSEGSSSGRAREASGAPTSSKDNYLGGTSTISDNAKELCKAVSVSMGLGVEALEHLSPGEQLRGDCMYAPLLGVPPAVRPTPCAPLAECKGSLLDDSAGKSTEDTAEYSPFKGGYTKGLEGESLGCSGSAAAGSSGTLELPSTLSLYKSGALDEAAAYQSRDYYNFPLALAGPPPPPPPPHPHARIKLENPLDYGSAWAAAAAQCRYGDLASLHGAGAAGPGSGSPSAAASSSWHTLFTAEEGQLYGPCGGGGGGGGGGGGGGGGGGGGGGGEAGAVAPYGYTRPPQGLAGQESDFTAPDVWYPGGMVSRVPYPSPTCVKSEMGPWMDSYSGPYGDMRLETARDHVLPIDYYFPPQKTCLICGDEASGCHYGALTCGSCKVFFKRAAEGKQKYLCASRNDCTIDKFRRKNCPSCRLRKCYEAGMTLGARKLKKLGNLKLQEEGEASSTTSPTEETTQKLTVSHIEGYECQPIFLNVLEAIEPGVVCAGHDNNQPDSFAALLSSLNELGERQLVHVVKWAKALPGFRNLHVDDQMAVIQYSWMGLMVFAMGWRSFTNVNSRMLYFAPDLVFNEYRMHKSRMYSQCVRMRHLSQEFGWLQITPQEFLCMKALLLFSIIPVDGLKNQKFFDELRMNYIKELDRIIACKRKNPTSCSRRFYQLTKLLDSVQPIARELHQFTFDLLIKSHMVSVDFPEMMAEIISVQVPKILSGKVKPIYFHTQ
# assay_name: VCAP AR Degradation Assay
# Type: cell-based
# test_conditions: class symbols *, **
Structures can show the parent of a compound that is named as a salt.
value_kind: Y (AR degradation efficiency, % of DMSO control)

Example results:
compound	measured_value
CCc1cc(N2C(=S)N(c3cnc(C#N)c(C(F)(F)F)c3)C(=O)C23CCC3)ccc1OCCN1C[C@H]2CC[C@@H]1CN2CC(=O)Nc1cccc(NC2CCC(=O)NC2=O)c1 (some centres unmarked)	** (25%<Y<=35%)
C[C@@H]1CN(CCOc2ccc(N3C(=S)N(c4ccc(C#N)c(C(F)(F)F)c4)C(=O)C34CCCC4)cc2C2CC2)C[C@H](C)N1CC(=O)Nc1cccc(NC2CCC(=O)NC2=O)c1 (some centres unmarked)	* (0<Y<=25%)
CCc1cc(N2C(=S)N(c3ccc(C#N)c(C(F)(F)F)c3)C(=O)C2(C)C)ccc1O[C@H](C)CN1C[C@@H](C)N(CC(=O)Nc2cccc(NC3CCC(=O)NC3=O)c2)[C@@H](C)C1 (single isomer, unassigned)	* (0<Y<=25%)
CCc1cc(N2C(=S)N(c3cnc(C#N)c(C(F)(F)F)c3)C(=O)C2(C)C)ccc1OCCN1CCN(CC(=O)Nc2cc(NC3CCC(=O)NC3=O)cc(F)c2F)[C@H](C)C1 (some centres unmarked)	* (0<Y<=25%)
C[C@@H]1CN(CCOc2ccc(N3C(=S)N(c4cnc(C#N)c(C(F)(F)F)c4)C(=O)C3(C)C)cc2C2CC2)C[C@H](C)N1CC(=O)Nc1cccc(NC2CCC(=O)NC2=O)c1 (some centres unmarked)	* (0<Y<=25%)

Would you mind giving Y (AR degradation efficiency, % of DMSO control) for every compound in the list below?
1. CCc1cc(N2C(=S)N(c3ccc(C#N)c(C(F)(F)F)c3)C(=O)C23CCC3)ccc1OCCN1CCN(CC(=O)Nc2cc(F)cc(NC3CCC(=O)NC3=O)c2)[C@H](C)C1 (some centres unmarked)
2. CCc1cc(N2C(=S)N(c3cnc(C#N)c(C(F)(F)F)c3)C(=O)C2(C)C)ccc1OCCN1CCN(CC(=O)Nc2cccc(NC3CCC(=O)NC3=O)c2)C2(CC2)C1 (centres unmarked)
3. CC(F)(F)c1cc(N2C(=S)N(c3cnc(C#N)c(C(F)(F)F)c3)C(=O)C2(C)C)ccc1OCCN1CCN(CC(=O)Nc2cc(Cl)cc(NC3CCC(=O)NC3=O)c2)CC1 (centres unmarked)
4. CCc1cc(N2C(=S)N(c3ccc(C#N)c(C(F)(F)F)c3)C(=O)C2(C)C)ccc1OCCN1C[C@@H](C)N(CC(=O)Nc2cc(Cl)cc(NC3CCC(=O)NC3=O)c2)[C@H](C)C1 (some centres unmarked)
5. CC1(C)C(=O)N(c2cnc(C#N)c(C(F)(F)F)c2)C(=S)N1c1ccc(OCCN2CCN(CC(=O)Nc3cccc(NC4CCC(=O)NC4=O)c3)[C@H](C(F)(F)F)C2)c(C2CC2)c1 (some centres unmarked)

Output:
1: * (0<Y<=25%); 2: * (0<Y<=25%); 3: * (0<Y<=25%); 4: * (0<Y<=25%); 5: * (0<Y<=25%)

Would you mind giving Y (AR degradation efficiency, % of DMSO control) for every compound in the list below?
1. CCc1cc(N2C(=S)N(c3cnc(C#N)c(C(F)(F)F)c3)C(=O)C2(C)C)ccc1OCCN1C[C@H]2CC[C@@H]1CN2CC(=O)Nc1cccc(NC2CCC(=O)NC2=O)c1 (some centres unmarked)
2. CCc1cc(N2C(=S)N(c3ccc(C#N)c(C(F)(F)F)c3)C(=O)C2(C)C)ccc1OCCN1CCN([C@H](C)C(=O)Nc2cccc(NC3CCC(=O)NC3=O)c2)CC1 (some centres unmarked) [Example 199]
3. CC1(C)C(=O)N(c2ccc(C#N)c(C(F)(F)F)c2)C(=S)N1c1ccc(OCCN2CCN(CC(=O)Nc3cccc(NC4CCC(=O)NC4=O)c3)CC2)c(C2CCC2)c1 (centres unmarked) [Example 31, trifluoroacetate]
4. CCc1cc(N2C(=S)N(c3cnc(C#N)c(C(F)(F)F)c3)C(=O)C2(C)C)ccc1OCCN1C[C@@H](C)N(CC(=O)Nc2cccc(NC3CCC(=O)NC3=O)c2)[C@@H](C)C1 (some centres unmarked)

Output:
1. ** (25%<Y<=35%)
2. ** (25%<Y<=35%)
3. * (0<Y<=25%)
4. * (0<Y<=25%)

Would you mind giving Y (AR degradation efficiency, % of DMSO control) for every compound in the list below?
1. CCc1cc(N2C(=S)N(c3cnc(C#N)c(C(F)(F)F)c3)C(=O)C2(C)C)ccc1OCCN1CC2CCC(C1)N2CC(=O)Nc1cccc(NC2CCC(=O)NC2=O)c1 (centres unmarked)
2. C[C@@H]1CN(CCOc2ccc(N3C(=S)N(c4ccc(C#N)c(Cl)c4)C(=O)C3(C)C)cc2C2CC2)C[C@H](C)N1CC(=O)Nc1cc(F)cc(NC2CCC(=O)NC2=O)c1 (some centres unmarked)

Output:
** (25%<Y<=35%)
* (0<Y<=25%)

Would you mind giving Y (AR degradation efficiency, % of DMSO control) for every compound in the list below?
1. CCc1cc(N2C(=S)N(c3ccc(C#N)c(C(F)(F)F)c3)C(=O)C2(C)C)ccc1OCCN1C[C@@H](C)N(CC(=O)Nc2cc(Cl)cc(NC3CCC(=O)NC3=O)c2)C[C@H]1C (some centres unmarked)
2. CC(F)(F)c1cc(N2C(=S)N(c3ccc(C#N)c(C(F)(F)F)c3)C(=O)C2(C)C)ccc1OCCN1CCN(CC(=O)Nc2cccc(NC3CCC(=O)NC3=O)c2)CC1 (centres unmarked)

Output:
1. * (0<Y<=25%)
2. * (0<Y<=25%)

Y (AR degradation efficiency, % of DMSO control) recorded for this compound, CC(C)c1cc(N2C(=S)N(c3ccc(C#N)c(C(F)(F)F)c3)C(=O)C2(C)C)ccc1OCCN1C[C@@H](C)N(CC(=O)Nc2cc(F)cc(NC3CCC(=O)NC3=O)c2)[C@@H](C)C1 (some centres unmarked) , is * (0<Y<=25%)
